Just for reference, PubChem BioAssay AID651733 is where these values come from.

- assay-target: Perilipin-5 (Homo sapiens) + 1-acylglycerol-3-phosphate O-acyltransferase ABHD5 (Homo sapiens) (UniProt Q00G26+Q8WTS1)
- Sequence (Q00G26 whole entry, looked up, the tested form may be a part): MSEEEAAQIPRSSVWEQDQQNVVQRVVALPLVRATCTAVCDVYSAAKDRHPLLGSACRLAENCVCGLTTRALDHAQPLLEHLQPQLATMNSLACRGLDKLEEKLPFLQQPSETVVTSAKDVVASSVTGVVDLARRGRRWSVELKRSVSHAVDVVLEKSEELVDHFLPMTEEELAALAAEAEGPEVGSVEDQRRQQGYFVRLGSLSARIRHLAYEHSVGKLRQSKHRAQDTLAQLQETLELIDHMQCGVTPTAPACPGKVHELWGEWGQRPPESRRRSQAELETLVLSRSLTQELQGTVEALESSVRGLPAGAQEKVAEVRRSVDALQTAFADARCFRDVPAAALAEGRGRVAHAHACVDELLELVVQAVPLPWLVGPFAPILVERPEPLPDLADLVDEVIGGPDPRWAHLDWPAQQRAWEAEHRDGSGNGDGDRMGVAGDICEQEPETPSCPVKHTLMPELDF
- Sequence (Q8WTS1 whole entry, looked up, the tested form may be a part): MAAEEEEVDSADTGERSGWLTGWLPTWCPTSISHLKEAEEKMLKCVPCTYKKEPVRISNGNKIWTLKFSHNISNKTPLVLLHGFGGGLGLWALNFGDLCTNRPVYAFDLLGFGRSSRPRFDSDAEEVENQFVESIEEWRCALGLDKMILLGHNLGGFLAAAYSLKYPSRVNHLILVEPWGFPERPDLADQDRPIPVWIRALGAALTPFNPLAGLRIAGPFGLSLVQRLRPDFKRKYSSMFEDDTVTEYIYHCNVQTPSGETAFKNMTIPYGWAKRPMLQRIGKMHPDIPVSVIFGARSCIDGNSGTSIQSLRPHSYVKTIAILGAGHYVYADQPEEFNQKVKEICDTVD
- protocol-notes: blockers of ABHD5 binding to perilipin-5 – cell lysate, luminescence, proteins expressed in HEK293T, dose response (AID 651733);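 further: split Gaussia princeps luciferase complementation between ABHD5 and MLDP fusion proteins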
- test-conditions: ABHD5-PLIN5 interaction
Calls of active or inactive are those of the source. How the calls were made is not given here.
Outcomes you can answer with include only these: active, inactive

// param item: CCc1nnc(NC(=O)c2nc(S(=O)(=O)Cc3cccc(C)c3)ncc2Cl)s1 ; yields the recorded call active

Again, but for COc1ccc(NC(=O)C(c2ccccc2)n2c(=O)c(-c3ccco3)nc3ccccc32)cc1 (stereo not given) inactive

// query: CCOc1cc(/C=C2\CCC/C(=C\c3cc(Cl)c(O)c(OCC)c3)C2=O)cc(Cl)c1O active

// query: CCC1(C)N=C(c2ccc3c(c2)OCO3)CC(c2ccccc2O)N1 (stereo not given) active

---

- assay-target: Perilipin-5 (Homo sapiens) + 1-acylglycerol-3-phosphate O-acyltransferase ABHD5 (Homo sapiens) (UniProt Q00G26+Q8WTS1)
- protocol-notes: blockers of ABHD5 binding to perilipin-5 – cell lysate, luminescence, proteins expressed in HEK293T, dose response (AID 651733)
- test-conditions: ABHD5-PLIN5 interaction
property-measured: IC50

// worked examples, IC50 included
compound="O=C(NCc1ccccc1)C(c1ccc(-c2ccccc2)cc1)n1c(=O)c(-c2ccco2)nc2ccccc21 (stereo not given)" property_measured=IC50 reported_value="5.97 µM"
compound=CSC(=Nc1ccccc1)N=C(SCc1ccccc1)N(C)C property_measured=IC50 reported_value="1.19 µM"

// returns reported IC50 for input CC1=CC(C)(C)Nc2ccc(OC(=O)c3cccnc3)cc21 3.25 µM

Same question for O=C(NCc1ccccc1)C(c1ccc(C(F)(F)F)cc1)n1c(=O)c(-c2ccco2)nc2ccccc21 (stereo not given) please. 3.15 µM

Check O=C(/C=C/Sc1ccccc1)c1ccc(Cl)cc1 too. 4 µM

---

- assay-target: Perilipin-5 (Homo sapiens) + 1-acylglycerol-3-phosphate O-acyltransferase ABHD5 (Homo sapiens) (UniProt Q00G26+Q8WTS1)
- protocol-notes: blockers of ABHD5 binding to perilipin-5 – cell lysate, luminescence, proteins expressed in HEK293T, dose response (AID 651733)
- test-conditions: ABHD5-PLIN5 interaction
Activity calls are given as the source filed them. How the calls were made is not given here.
property-measured: IC50

Example entries and their recorded answers appear below.
compound=CSc1nnc(NC(=O)c2nc(S(=O)(=O)Cc3ccccc3)ncc2Cl)s1 property_measured=IC50 reported_value="4.13 µM"
compound=CCN1CCN(Cc2ccc(NC(=O)c3ccc(C)c(/C=C/c4cnc(Nc5cc(N6CCNCC6)nc(C)n5)cn4)c3)cc2C(F)(F)F)CC1 property_measured=IC50 reported_value="6.01 µM"
compound=O=C1NC(=O)N(c2ccccc2F)C(=O)/C1=C/c1ccc(Oc2ccc([N+](=O)[O-])cn2)cc1 property_measured=IC50 reported_value="7.53 µM"
compound=O=[N+]([O-])/C=C/c1cn(Cc2ccc(F)cc2)c2ccccc12 property_measured=IC50 reported_value="7.06 µM"
compound=O=CC1=C(c2ccccc2)Oc2ccccc2O1 property_measured=IC50 reported_value="3.02 µM"
compound=Cc1ccc(C)c(/C=C/C(=O)c2ccccc(=O)c2O)c1 property_measured=IC50 reported_value="5.69 µM"
compound="CC1CN(Cc2c(O)ccc3c2oc(=O)c2ccccc23)CC(C)O1 (stereo not given)" property_measured=IC50 reported_value="4.77 µM"
compound=Cc1ccc(O)c(C(=O)/C=C/c2ccc3c(c2)OCCCO3)c1 property_measured=IC50 reported_value="4.93 µM"

Looking for the measured IC50 of C#CCN(C[C@@H]1[C@@H](OC(=O)NCCCCCC)[C@@H](OC(=O)NCCCCCC)Cn2c(=O)ccc(=O)n21)S(=O)(=O)c1ccc(C)cc1 , can you help? 6.47 µM

// repeat for Cc1cccc(C)c1NC(=O)C(c1cccc2ccccc12)n1c(=O)c(-c2ccco2)nc2ccccc21 (stereo not given) and report 4.15 µM

Next: O=C(Cn1c(=O)n(Cc2ccco2)c(=O)c2c3c(sc21)CCCC3)Nc1ccccc1 inactive

Note, next up: CCOC(=O)c1c(NC(C)=O)sc2c1CCC(C=O)=C2Sc1ccccc1 3.1 µM

Next compound: CC(C)(C)NC(=O)C(c1ccnc2ccccc12)n1c(=O)c(-c2ccco2)nc2ccccc21 (stereo not given) 8.16 µM

Next record, please: CS(=O)(=O)c1ccc(C(=O)NCCN2C(=O)S/C(=C\c3cccnc3)C2=O)cc1[N+](=O)[O-] 4.62 µM

Cool, now N#Cc1ncc(Cc2ccccc2)nc1C#N inactive

Another compound: C#CCN(C[C@@H]1[C@@H](OC(=O)NC2CCCC2)[C@@H](OC(=O)NC2CCCC2)Cn2c(=O)ccc(=O)n21)S(=O)(=O)c1ccc(C)cc1 7.83 µM

---

- assay-target: Perilipin-5 (Homo sapiens) + 1-acylglycerol-3-phosphate O-acyltransferase ABHD5 (Homo sapiens) (UniProt Q00G26+Q8WTS1)
- protocol-notes: blockers of ABHD5 binding to perilipin-5 – cell lysate, luminescence, proteins expressed in HEK293T, dose response (AID 651733)
- test-conditions: ABHD5-PLIN5 interaction
Activity calls are given as the source filed them. No rule for the calls is given here.
Response enum: 1 (yes) = active, 0 (no) = inactive

Some solved cases for reference:
compound=Cc1nc(-c2ccccc2)sc1C(=O)/C=C/c1ccccc1 cat="1 (yes)"
compound="CC1=CC(C)(C)Nc2ccc(OC(=O)C(C)N3C(=O)c4ccccc4C3=O)cc21 (stereo not given)" cat="1 (yes)"
compound=CCC(=O)Nc1cccc(C(=O)/C=C/c2ccccc2)c1 cat="1 (yes)"
compound=O=C(/C(=C/c1ccccc1)n1cncn1)c1ccc(Cl)cc1Cl cat="1 (yes)"
compound="Cc1cccc(C)c1NC(=O)C(c1ccc(-c2ccccc2)cc1)n1c(=O)c(-c2ccco2)nc2ccccc21 (stereo not given)" cat="1 (yes)"

Hello, I am checking results. What call was entered for CN(C)CCCN(C(=O)CCc1ccccc1)c1nc2ccc(Cl)cc2s1 ? 0 (no)

// same read-out, input: CSc1nnc(NC(=O)c2nc(S(=O)(=O)Cc3ccc(C)cc3)ncc2Cl)s1 1 (yes)

Also O=C(Nc1ccc(Cl)cc1)/C(=C/c1cccc(O)c1)c1nc2ccccc2s1 ? 1 (yes)

Again, but for CC(=O)Oc1ccc(C23c4ccccc4C2(OC(C)=O)c2cc(OC(C)=O)ccc23)cc1 (stereo not given) 1 (yes)

Try this compound too: COc1ccc(NC(=S)N(CCCN2CCCC2)Cc2cccn2Cc2ccc(Cl)cc2)cc1Cl 0 (no)

---

- assay-target: Perilipin-5 (Homo sapiens) + 1-acylglycerol-3-phosphate O-acyltransferase ABHD5 (Homo sapiens) (UniProt Q00G26+Q8WTS1)
- protocol-notes: blockers of ABHD5 binding to perilipin-5 – cell lysate, luminescence, proteins expressed in HEK293T, dose response (AID 651733);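 further: split Gaussia princeps luciferase complementation between ABHD5 and MLDP fusion proteins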
- test-conditions: ABHD5-PLIN5 interaction
The source made the active and inactive calls. The rule behind the calls is not given here.
Pick from active, inactive when you respond.

Past entries and their recorded results:
compound="CCCCC(=O)NC(c1cccc([N+](=O)[O-])c1)c1ccc2cccnc2c1O (stereo not given)" cat=inactive
compound="COc1ccc(C(C(=O)NC2CCCCC2)n2c(=O)c(-c3ccco3)nc3ccccc32)cc1 (stereo not given)" cat=active
compound="O=C(NCc1ccccc1)C(c1cccc2ccccc12)n1c(=O)c(-c2ccco2)nc2ccccc21 (stereo not given)" cat=active

Outcome logged for CC(=O)C1=C(c2cccc([N+](=O)[O-])c2)N(C(C)=O)n2c(C)nnc2S1 in this assay: active

Now this one: Cc1oc2c(c1C(=O)c1ccc(Cl)cc1)C(=O)C(=O)c1ccccc1-2 active

Queued: CC(O)CC(=O)OC[C@]12CC[C@H]3[C@@](C)(CC[C@H]4C(C)(C)CCC[C@]34C)[C@@H]1CC(C1=CC(=O)OC1O)O2 (stereo not given in full) active

---

- assay-target: Perilipin-5 (Homo sapiens) + 1-acylglycerol-3-phosphate O-acyltransferase ABHD5 (Homo sapiens) (UniProt Q00G26+Q8WTS1)
- protocol-notes: blockers of ABHD5 binding to perilipin-5 – cell lysate, luminescence, proteins expressed in HEK293T, dose response (AID 651733);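 further: split Gaussia princeps luciferase complementation between ABHD5 and MLDP fusion proteins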
- test-conditions: ABHD5-PLIN5 interaction
Activity calls are given as the source filed them. The rule behind the calls is not given here.
In this exercise, the only acceptable responses are T (active), F (inactive)

Hi team, can someone confirm the assay call for O=C(Nc1ccc2c(c1)OCCO2)C(c1ccnc2ccccc12)n1c(=O)c(-c2ccco2)nc2ccccc21 (stereo not given) ? F

---

- assay-target: Perilipin-5 (Homo sapiens) + 1-acylglycerol-3-phosphate O-acyltransferase ABHD5 (Homo sapiens) (UniProt Q00G26+Q8WTS1)
- protocol-notes: blockers of ABHD5 binding to perilipin-5 – cell lysate, luminescence, proteins expressed in HEK293T, dose response (AID 651733);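 further: split Gaussia princeps luciferase complementation between ABHD5 and MLDP fusion proteins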
- test-conditions: ABHD5-PLIN5 interaction
Activity calls are given as the source filed them. How the calls were made is not given here.
I would appreciate it if you answered using one of these outcomes: active, inactive

compound=COCCNC(=O)/C(C#N)=C/c1cccc(/C=C(\C#N)C(=O)NCCOC)c1 cat=active
compound=Cc1nnc(NC(=O)c2nc(S(=O)(=O)Cc3ccccc3C)ncc2Cl)s1 cat=active
compound="Cc1cc(C)c2nc(NNC(=O)c3ccc(S(=O)(=O)N4CCCC(C)C4)cc3)sc2c1 (stereo not given)" cat=active
compound="CCOc1cc(N)c(Cl)cc1C(=O)NCC1CN(Cc2ccc(F)cc2)CCO1 (stereo not given)" cat=active

Please indicate how the test categorized CCCCn1c(SCC(=O)NCc2ccco2)nnc1-c1ccoc1C . active

What would you report for NC(=O)C(C(=O)/C=C/c1ccc(Cl)cc1)=C1SCCS1 ? inactive

Same question, CC(=O)Oc1c(Br)cc(N(C(C)=O)S(=O)(=O)c2ccccc2)c2ccccc12 this time inactive

Now the same for O=C1NC(=O)N(Cc2ccc(F)cc2)C(=O)/C1=C\C=C\c1ccco1 active

Follow-up item: COc1ccc(NC(=O)C(c2ccc(OC)cc2)n2c(=O)c(-c3ccco3)nc3ccccc32)cc1 (stereo not given) inactive
